Origin of values: the supplement of paper PMC8728848

- ASSAYED_TARGET: GlcNAc(b1-3)[GlcNAc(b1-6)]GalNAc
- ASSAY_NOTES: glycan array binding signal (z-score within array); higher = stronger binding
- ASSAY_SETUP: glycan notation: IUPAC condensed, linker removed
The full list was thinned out, with the strongest signals kept by preference.
A collection of binders and their measured glycan array binding signal (z-score)

GSL-I-B4 (Griffonia simplicifolia) (protein) NFWSDVEDSIIFQGDANTTAGTLQLCKTNQYGTPLQWSAGRALYSDPVQLWDNKTESVASFYTEFTFFLKITGNGPADGLAFFLAPPDSDVKDAGEYLGLFNKSTATQPSKNQVVAVEFDTWTNPNFPEPSYRHIGINVNSIVSVATKRWEDSDIFSGKIATARISYDGSAEILTVVLSYPDGSDYILSHSVDMRQNLPESVRVGISASTGNNQFLTVYILSWRFSSNLQSTSVKAAMEPEITRTVV
-0.161

In the following, a different binder is considered.
Query :: Would you kindly share the measured glycan array binding signal (z-score) for Clec18A (Homo sapiens) (protein) PFHTCDLRIDGDCFMVSSEADTYYRARMKCQRKGGVLAQIKRQKVQDILAFYLGRLETTNEVIDSDFETRNFWIGLTYKTAKDSFRWATGEHQAFTSFAFGQPDNHGFGNCVELQASAAFNWNDQRCKTRNRYICQ ?
Result :: -0.327
